Where do the numbers come from? From ChEMBL document CHEMBL2417356.

# Organism: Cavia porcellus
# ASSAY PROTOCOL: Inhibition of Hartley guinea pig eosinophil PDE4 assessed as cAMP hydrolysis at 100 nM by two-step radioisotope method relative to control
PROPERTY NAME: inhibition (%)

Brc1cccc(Sc2ncccc2OCCCc2ccccn2)c1 : 10
Brc1cccc(Sc2ncccc2OCCc2cccnc2)c1 : 60
Brc1cccc(Sc2ncccc2OCCCc2cccnc2)c1 : 69

(a) Brc1cccc(Sc2ncccc2OCCCc2ccncc2)c1
(b) Brc1cccc(Sc2ncccc2OCCCCc2cccnc2)c1
(c) Brc1cccc(Sc2ncccc2OCCCCc2ccncc2)c1
(d) Brc1cccc(Sc2ncccc2OCCc2ccncc2)c1
Ascending by inhibition, please: list the compounds accordingly. Respond with the label ranking, as requested.
c, b, d, a
(c: 3%, b: 5%, d: 56%, a: 80%)
